List of inhibition at 10 µM values.
test system: peripheral type CCK receptors in rat pancreas (Rattus norvegicus)
Construct: Pancreas was obtained from male Sprague-Dawley rats; from tissue; host or cells: pancreas membranes of male Sprague-Dawley rats
measurement description: Binding to peripheral type CCK receptors in rat pancreas (3H-L-364,718)
measurement context: at 10 μM; read-out: Pancreas Percent Inhibition
Only the number, expressed in %, is required.

compound="O=C1NN(C(=O)Nc2ccc(I)cc2)[C@@H](c2ccccc2)[C@@H]1c1ccccc1 (relative stereo) [Example 21]" reported_value=77
compound="O=C1NN(C(=O)Nc2ccc(Br)cc2)C(c2ccc([N+](=O)[O-])cc2)C1c1ccccc1 (stereo not shown) [Example 119]" reported_value=64
compound="O=C1NN(C(=O)N2CCc3ccccc3C2)[C@@H](c2ccccc2)[C@@H]1c1ccccc1 (relative stereo) [Example 109]" reported_value=11
compound="CSc1ccc(NC(=O)N2NC(=O)[C@@H](c3ccccc3)[C@@H]2c2ccccc2)cc1 (relative stereo) [Example 38]" reported_value=53
compound="CCCCC1C(c2ccccc2)C(=O)NN1C(=O)Nc1cccc(C(F)(F)F)c1 (stereo not shown) [Example 70]" reported_value=36

What does the record list as inhibition at 10 µM for O=C1NN(C(=O)Nc2cccnc2)[C@@H](c2ccccc2)[C@@H]1c1ccccc1 (relative stereo) [Example 88] ?
37

And what about the compound O=C1NN(C(=O)Cc2ccc(C(F)(F)F)cc2)[C@H](c2ccccc2)[C@H]1c1ccccc1 (relative stereo) [Example 77] ?
20

* * *

test system: peripheral type CCK receptors in rat pancreas (Rattus norvegicus, UniProt P30551)
Construct: Pancreas was obtained from male Sprague-Dawley rats; from tissue; host or cells: pancreas membranes of male Sprague-Dawley rats
measurement description: Binding to peripheral type CCK receptors in rat pancreas (3H-L-364,718)
measurement context: at 10 μM; read-out: Pancreas Percent Inhibition
Method: Binding to peripheral type CCK receptors in rat pancreas was done according to the method of Chang et al. (Mol. Pharmacol. 30: 212-217, 1986) using ^3 H-L364, 718. […] Scintillation cocktail was added to the filters which were counted for radioactivity using a Micromedic Taurus automatic liquid scintillation counter. Compound samples were prepared and IC-50 values were determined as described for the CCK-brain experiments. […]
Kind request: treat 50% as inclusive, so inhibition at 10 µM at 50% or higher is Satisfied, anything lower is Not satisfied.

Decide: inhibition at 10 µM of O=C1NN(C(=O)Nc2ccc(Br)cc2)[C@@H](c2cccc(Cl)c2Cl)[C@H]1c1ccccc1 (relative stereo) [Example 117] >= 50%?
Satisfied

And what about the molecule O=C1NN(C(=O)Cc2cccc(C(F)(F)F)c2)[C@H](c2ccccc2)[C@H]1c1ccccc1 (relative stereo) [Example 76] ?
Not satisfied

And what about the molecule CC(C)Oc1ccc(NC(=O)N2NC(=O)[C@@H](c3ccccc3)[C@@H]2c2ccccc2)cc1 (relative stereo) [Example 35] ?
Not satisfied

And what about the molecule COc1cccc(C2C(c3ccccc3)C(=O)NN2C(=O)Nc2ccc(C(F)(F)F)cc2)c1 (stereo not shown) [Example 112] ?
Not satisfied

And what about the molecule CCc1ccc(NC(=O)N2NC(=O)[C@@H](c3ccccc3)[C@@H]2c2ccccc2)cc1 (relative stereo) [Example 26] ?
Not satisfied

And what about the molecule O=C(Nc1ccc(C(F)(F)F)cc1)N1N[C@@H](c2ccccc2)[C@H](c2ccccc2)C1=O (relative stereo) [Example 83] ?
Not satisfied

* * *

test system: brain CCK receptor (Mus musculus, UniProt P56481)
Construct: from tissue; host or cells: forebrain membranes of male CF-1 mice
Sequence (P56481 whole entry): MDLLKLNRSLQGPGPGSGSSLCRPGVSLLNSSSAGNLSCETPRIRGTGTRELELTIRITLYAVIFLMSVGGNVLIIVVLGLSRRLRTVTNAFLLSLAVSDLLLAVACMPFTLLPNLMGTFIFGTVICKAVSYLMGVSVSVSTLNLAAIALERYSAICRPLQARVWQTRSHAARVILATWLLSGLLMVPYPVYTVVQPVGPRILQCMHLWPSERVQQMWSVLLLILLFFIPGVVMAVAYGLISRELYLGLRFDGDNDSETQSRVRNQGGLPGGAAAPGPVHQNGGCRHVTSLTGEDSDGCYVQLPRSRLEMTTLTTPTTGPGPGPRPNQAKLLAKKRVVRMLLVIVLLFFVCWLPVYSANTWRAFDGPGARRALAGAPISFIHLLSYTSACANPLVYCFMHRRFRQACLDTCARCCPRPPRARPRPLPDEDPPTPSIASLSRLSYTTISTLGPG
measurement description: CCK receptor binding, mouse brain membranes (125I-CCK-8 sulfate)
measurement context: mouse brain membranes; read-out: Brain IC50
List of log10 IC50 values.
Would you kindly interpret these values as log10 of IC50 expressed in nM?

Past entries and their recorded results:
compound="O=C1NN(C(=O)Nc2ccc(Br)cc2)[C@@H](c2ccccc2)[C@@H]1c1ccccc1 (relative stereo) [Example 20]" measured_property="log10 IC50" reported_value=1.49
compound="O=C1NN(C(=O)Nc2ccc(Br)cc2)[C@@H](c2cccc(Cl)c2Cl)[C@H]1c1ccccc1 (relative stereo) [Example 117]" measured_property="log10 IC50" reported_value=2.60
compound="O=C1NN(C(=O)Nc2ccc(Cl)cc2)[C@@H](c2ccccc2)[C@@H]1c1ccccc1 (relative stereo) [Example 18]" measured_property="log10 IC50" reported_value=1.97
compound="O=C1NN(C(=O)Nc2ccc(Br)cc2)C(c2ccccc2)C1c1cccc(Cl)c1 (centres unmarked) [Example 126]" measured_property="log10 IC50" reported_value=1.04
compound="O=C1NN(C(=O)Nc2ccc(Cl)c(C(F)(F)F)c2)[C@@H](c2ccccc2)[C@@H]1c1ccccc1 (relative stereo) [Example 1]" measured_property="log10 IC50" reported_value=1.34

What does the record list as log10 IC50 for O=C1NN(C(=O)Nc2ccc(Br)cc2)[C@@H](c2ccccc2)[C@@H]1c1ccccc1 (single isomer, unassigned) [Example 141] ?
1.20

And what about the compound O=C1NN(C(=O)Nc2ccc(Br)c(C(F)(F)F)c2)[C@H](c2ccccc2)[C@H]1c1ccccc1 (relative stereo) [Example 45] ?
1.34

And what about the compound O=C1NN(C(=O)Nc2ccc(OCCc3ccccc3)cc2)[C@@H](c2ccccc2)[C@@H]1c1ccccc1 (relative stereo) [Example 36] ?
2.65

And what about the compound CC(C)Oc1cccc(NC(=O)N2NC(=O)[C@H](c3ccccc3)[C@H]2c2ccccc2)c1 (relative stereo) [Example 43] ?
2.36

And what about the compound O=C1NN(C(=O)NC2CCc3ccccc3C2)[C@@H](c2ccccc2)[C@@H]1c1ccccc1 (relative stereo) [Example 4] ?
2.59

And what about the compound CC(=O)c1ccc(NC(=O)N2NC(=O)[C@@H](c3ccccc3)[C@@H]2c2ccccc2)cc1 (relative stereo) [Example 23] ?
2.69

And what about the compound O=C1NN(C(=O)Nc2ccc(C(F)(F)F)cc2)[C@@H](c2ccccc2)[C@@H]1c1ccccc1 (relative stereo) [Example 16] ?
1.64

And what about the compound O=C1NN(C(=O)Nc2ccc(I)cc2)[C@@H](c2ccccc2)[C@@H]1c1ccccc1 (relative stereo) [Example 21] ?
1.76

And what about the compound COc1cccc(NC(=O)N2NC(=O)[C@H](c3ccccc3)[C@H]2c2ccccc2)c1 (relative stereo) [Example 42] ?
2.89

* * *

test system: brain CCK receptor (Mus musculus, UniProt P56481)
Construct: from tissue; host or cells: forebrain membranes of male CF-1 mice
measurement description: CCK receptor binding, mouse brain membranes (125I-CCK-8 sulfate)
measurement context: mouse brain membranes; read-out: Brain IC50
Protocol: Brain CCK receptor binding was performed using mouse brain membranes according to the method of Chang and Lotti (Proc. Natl. Acad. Sci. 83: 4923-4926, 1986). Male CF-1 mice, 23-25 g were sacrificed by cervical dislocation, the forebrain removed and placed in ice cold 50 mM Tris buffer, pH 7.4. […] The filters were washed twice with 3 ml of 50 mM Tris buffer, pH 7.4, containing 0.01% BSA and then counted for radioactivity in plastic tubes with a Micromedic 10/600 automatic gamma counter. […]
List of IC50 values.
Only the number, expressed in nM, is required.

Past entries and their recorded results:
compound="O=C1NN(C(=O)Nc2ccc(Br)cc2)C(c2ccccc2)C1c1ccc(Cl)cc1 (stereo not shown) [Example 129]" reported_value=160
compound="CC(C)c1ccc(NC(=O)N2NC(=O)[C@@H](c3ccccc3)[C@@H]2c2ccccc2)cc1 (relative stereo) [Example 29]" reported_value=25
compound="O=C1NN(C(=O)Nc2ccc(Br)cc2)C(c2ccccc2Cl)C1c1ccccc1 (stereo not shown) [Example 114]" reported_value=20
compound="O=C1NN(C(=O)NCCCc2ccccc2)[C@@H](c2ccccc2)[C@@H]1c1ccccc1 (relative stereo) [Example 108]" reported_value=1300
compound="O=C1NN(C(=O)NCCc2ccccc2Cl)[C@@H](c2ccccc2)[C@@H]1c1ccccc1 (relative stereo) [Example 106]" reported_value=190
compound="O=C1NN(C(=O)Nc2ccc(Br)cc2)C(c2ccccc2)C1c1ccccc1Cl (stereo not shown) [Example 122]" reported_value=15

What does the record list as IC50 for CCOc1ccc(NC(=O)N2NC(=O)[C@@H](c3ccccc3)[C@@H]2c2ccccc2)cc1 (relative stereo) [Example 34] ?
1500

* * *

test system: peripheral type CCK receptors in rat pancreas (Rattus norvegicus)
Construct: Pancreas was obtained from male Sprague-Dawley rats; from tissue; host or cells: pancreas membranes of male Sprague-Dawley rats
Sequence (P30551 1-444): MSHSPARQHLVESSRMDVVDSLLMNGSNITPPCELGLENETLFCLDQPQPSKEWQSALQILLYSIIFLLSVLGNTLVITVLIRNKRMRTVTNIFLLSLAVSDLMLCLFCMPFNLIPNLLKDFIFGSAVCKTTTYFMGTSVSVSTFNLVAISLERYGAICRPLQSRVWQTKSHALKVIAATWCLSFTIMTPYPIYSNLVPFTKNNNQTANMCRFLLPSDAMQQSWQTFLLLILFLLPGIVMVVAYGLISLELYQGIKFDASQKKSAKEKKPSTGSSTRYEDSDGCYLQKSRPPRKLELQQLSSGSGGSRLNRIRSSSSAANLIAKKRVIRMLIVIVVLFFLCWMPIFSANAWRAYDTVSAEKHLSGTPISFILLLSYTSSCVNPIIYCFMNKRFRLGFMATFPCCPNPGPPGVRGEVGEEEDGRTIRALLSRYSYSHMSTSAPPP
measurement description: Binding to peripheral type CCK receptors in rat pancreas (3H-L-364,718)
measurement context: at 10 μM; read-out: Pancreas Percent Inhibition
Grouping rule (inhibition at 10 µM): class 1 = under 30%, class 2 = from 30% up to 60%, class 3 = 60% and over

compound="O=C1NN(C(=O)Nc2ccc(OCc3ccccc3)cc2)[C@@H](c2ccccc2)[C@@H]1c1ccccc1 (relative stereo)" cat="class 2"
compound="O=C1NN(C(=O)Nc2ccc(Oc3ccccc3)cc2)[C@@H](c2ccccc2)[C@@H]1c1ccccc1 (relative stereo)" cat="class 3"

Quick check: band for O=C1NN(C(=O)NCCCc2ccccc2)[C@@H](c2ccccc2)[C@@H]1c1ccccc1 (relative stereo)
class 3

And what about the compound O=C1NN(C(=O)Nc2ccc(Cl)c(C(F)(F)F)c2)C(c2ccccc2Cl)C1c1ccccc1 (centres unmarked) ?
class 3

And what about the compound Nc1ccc(NC(=O)N2NC(=O)[C@@H](c3ccccc3)[C@@H]2c2ccccc2)cc1 (relative stereo) ?
class 1

And what about the compound O=C1NN(C(=O)Nc2cccc([N+](=O)[O-])c2)[C@H](c2ccccc2)[C@H]1c1ccccc1 (relative stereo) ?
class 2

And what about the compound O=C1NN(C(=O)Nc2ccc(C(F)(F)F)cc2)[C@@H](c2ccccc2)[C@@H]1c1ccccc1 (relative stereo) ?
class 3
